Tested on: biotinyl-Ile-oxazolone
assayComment: self-aminoacylation, catalytic enhancement (BIO) (fold over background); higher = more active; k-Seq, kA / k0A0; sequences stand for … in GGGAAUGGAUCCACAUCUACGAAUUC…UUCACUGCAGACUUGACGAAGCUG
Fewer inactive variants are shown than the library holds.
Tag: Criterion met if measured self-aminoacylation is not below 6, Criterion not met if it is.

Example entries begin here.
AUUCACCUACGUCAUGGGGUG [Fam2.2 aminoacylation ribozyme variant] | Criterion not met
CCACACUUCACGCCAUCGGUC [Fam1B.1 aminoacylation ribozyme variant] | Criterion not met
AUUGCCCUGGUCAUCGAGUGU [Fam2.1 aminoacylation ribozyme variant] | Criterion met

Field: next sequence
Is it the case that AUUACCCUGGCCAUCCAGUGA [Fam2.1 aminoacylation ribozyme variant] has self-aminoacylation reaching or exceeding 6? Criterion not met

###

Tested on: biotinyl-Trp-oxazolone
assayComment: self-aminoacylation, catalytic enhancement (BWO) (fold over background); higher = more active; k-Seq, kA / k0A0; sequences stand for … in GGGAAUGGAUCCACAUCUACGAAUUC…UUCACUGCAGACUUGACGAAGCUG
Variants at the floor of the assay were thinned out.
Cut-off 2 on self-aminoacylation, inclusive. At or above means 1; below means 0.

Sample answers from the record:
AAGUUCGCUAAUGGUCGCAAG [Fam3.1 aminoacylation ribozyme variant] | 0
AUUACCCUGGUCCUCAAGUGA [Fam2.1 aminoacylation ribozyme variant] | 1
CCACACUUCUAGCAAUCGGUC [Fam1B.1 aminoacylation ribozyme variant] | 0
AAAUUUGGUAAUAGUCGCAAG [Fam3.1 aminoacylation ribozyme variant] | 1
CAGUGUGCUAAUAGUCGCAAG [Fam3.1 aminoacylation ribozyme variant] | 0
AUUACCCUGGUCAUCUAGUCA [Fam2.1 aminoacylation ribozyme variant] | 0

Threshold query (self-aminoacylation >= 2) on CCAUACUUCAAGCAAUCCGUC [Fam1B.1 aminoacylation ribozyme variant] 0

Is reported self-aminoacylation greater than or equal to 2 here: AUUCACCUAGGUAAUCUGGUG [Fam2.2 aminoacylation ribozyme variant] 1

Identify whether the reported self-aminoacylation of the following sequence is 2 or greater: AAGUCUUCUAAUAGUCGCAAG [Fam3.1 aminoacylation ribozyme variant] 1

Does self-aminoacylation meet or surpass 2 for AAGUUCGAUAAUAGUCGCAAG [Fam3.1 aminoacylation ribozyme variant] ? 0

Given the entry AAGUUAGCUAAUAGUCGCAGG [Fam3.1 aminoacylation ribozyme variant] , answer whether its self-aminoacylation meets or surpasses 2. 0

self-aminoacylation >= 2 for CCACACUUCACGCAAUCUGUC [Fam1B.1 aminoacylation ribozyme variant] ? 0

State whether the measured self-aminoacylation reaches 2, counting equality as reaching it, for CCAAACCUCAAGCAAUCGGUC [Fam1B.1 aminoacylation ribozyme variant] 0

Evaluate AUUCUCCUAGGGCAUCGGGUG [Fam2.2 aminoacylation ribozyme variant] : self-aminoacylation at minimum 2? 1

Determine whether this sequence has self-aminoacylation no lower than 2: CUACUUCAAAGAAUCGGUCUU [Fam1A.1 aminoacylation ribozyme variant] 1

Reported self-aminoacylation reaches at least 2 for AAGUUUGCUAAUAGUCACAAA [Fam3.1 aminoacylation ribozyme variant] ? 0

###

System: biotinyl-Leu-oxazolone
assayComment: self-aminoacylation, catalytic enhancement (BLO) (fold over background); higher = more active; k-Seq, kA / k0A0; sequences stand for … in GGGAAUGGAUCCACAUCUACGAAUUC…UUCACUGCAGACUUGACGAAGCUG
Fewer inactive variants are shown than the library holds.
observable: self-aminoacylation

Solved entries:
AUUACCCAGGUCAUCGAGGGA [Fam2.1 aminoacylation ribozyme variant] | 1.48
UUUCAGCUAGGUCAUCGGGUG [Fam2.2 aminoacylation ribozyme variant] | 6.61

Sample AAGUAUGAUAAUAGUCGCAAG [Fam3.1 aminoacylation ribozyme variant] ; self-aminoacylation observed: 1.1

// AUUCACCUAGGCCAACGGGUG [Fam2.2 aminoacylation ribozyme variant] : self-aminoacylation value = 4.01

Value of self-aminoacylation reported for the sequence ACUACCCUGGUCAUCGAGUUA [Fam2.1 aminoacylation ribozyme variant] is 5.11

For record AAAUUUGCUAAUAGUCGCCAG [Fam3.1 aminoacylation ribozyme variant] the listed self-aminoacylation is 1.67
